Origin of the recorded values: ChEMBL document CHEMBL3396969

experiment-description: Inhibition of beta-hematin formation
Assay type: physicochemical
measurement-label: IC50 (µM)
Entry rule: numbers only, all in µM.

Query string: // returns reported IC50 for input CCN(CC)CCCC(C)Nc1ccnc2cc(Cl)ccc12 (stereo unspecified)
Result string: 27.9

---

Recorded pIC50, one value per entry.
System: Plasmodium falciparum
experiment-description: Antimicrobial activity against Plasmodium falciparum Dd2
Assay type: functional
Schema: pIC50 number; meaning minus log10 of the concentration expressed in molar units.

COc1cc(NC(C)CCCNc2ccnc3cc(Cl)ccc23)c2ncccc2c1 (configuration not stated)    7.10

Next:
Query string: // returns reported pIC50 for input COc1cc(NC(C)CCCN)c2ncccc2c1 (configuration not stated) [PRIMAQUINE]
Result string: 6.34

---

Tested on: Plasmodium falciparum
experiment-description: Antimicrobial activity against chloroquine-sensitive Plasmodium falciparum 3D7 infected in human erythrocytes after 72 hrs by SYBR green I fluorescence-based method
Type: functional, organism-based
details: 3D7, 72 h
Recorded pIC50, one value per entry.
Schema: pIC50 number; meaning minus log10 of the concentration expressed in molar units.

CC(C)(N)CNc1ccnc2cc(Cl)ccc12    8.26

Next:
Query string: // returns reported pIC50 for input "CN(C)C(C)(C)CNc1ccnc2cc(Cl)ccc12"
Result string: 8.26
